Quick list: pIC50 per entry.
Molecular target: Oxysterols receptor LXR-alpha (Homo sapiens)
Sequence (Q13133 whole entry): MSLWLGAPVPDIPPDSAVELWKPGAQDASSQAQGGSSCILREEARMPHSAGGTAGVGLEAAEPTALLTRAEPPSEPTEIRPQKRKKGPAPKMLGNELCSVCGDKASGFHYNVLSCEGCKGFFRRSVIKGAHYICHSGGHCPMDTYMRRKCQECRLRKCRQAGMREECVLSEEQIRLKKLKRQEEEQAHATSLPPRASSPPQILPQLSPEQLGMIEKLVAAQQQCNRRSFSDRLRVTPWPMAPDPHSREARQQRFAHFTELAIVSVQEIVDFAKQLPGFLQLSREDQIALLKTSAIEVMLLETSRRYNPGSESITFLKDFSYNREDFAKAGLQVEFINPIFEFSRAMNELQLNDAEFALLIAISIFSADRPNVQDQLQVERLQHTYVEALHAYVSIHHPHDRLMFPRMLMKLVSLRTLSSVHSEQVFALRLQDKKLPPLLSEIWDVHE
Test: Transactivational antagonist activity at human LXRalpha transfected in HEK293 cells expressing CMX-Gal4N assessed as inhibition of T1317-induced luciferase activity after 16 hrs by reporter gene assay
pIC50: −log10 of the molar value.

Please review the following examples before continuing.
{"structureAsSmiles": "C=C1c2ccccc2C(=O)N(C)c2ccc(CO)cc21", "observed": "< 5.00"}
{"structureAsSmiles": "C=C1c2ccccc2C(=O)N(C)c2ccccc21", "observed": "< 5.00"}
{"structureAsSmiles": "C=C1c2ccccc2C(=O)N(C)c2ccc(C)cc21", "observed": "< 5.00"}
{"structureAsSmiles": "C=C1c2ccccc2C(=O)N(C)c2ccc(CCCCCC)cc21", "observed": "< 5.00"}
{"structureAsSmiles": "C=C1c2ccc(-c3cccc(C(=O)O)c3)cc2C(=O)N(C)c2ccc(CC)cc21", "observed": "< 4.52"}

Observed pIC50 on Oxysterols receptor LXR-alpha (Homo sapiens), entry "C=C1c2ccccc2C(=O)N(C)c2ccc(CC)cc21" , equals < 4.52

Observed pIC50 on Oxysterols receptor LXR-alpha (Homo sapiens), entry "C=C1c2ccccc2C(=O)N(C)c2ccc(CCCCCCCCCCCC)cc21" , equals < 4.52
